TESTED ON: SYK (human)
RUN DESCRIPTION: radiometric filter-binding kinase assay, Kinase HotSpot
MEASUREMENT SETUP: compound 0.5 µM; ATP 10 µM
OBSERVATION TYPE: residual activity (%)
Field format: number, assumed %, no unit text.

Ask: Endpoint output: residual activity of NC(=O)c1cccc(-c2cc(Nc3ccc(OC(F)(F)F)cc3)ncn2)c1 . Value?
Reply: 99.9

Ask: What value of residual activity has been reported for the following compound? CCCCc1c(-c2ccc(OC)cc2)[nH]c2nccnc12
Reply: 47.5

Ask: Can you look up the measured residual activity of N#Cc1c[nH]c2c[nH]/c(=N\Cc3cccnc3)cc2/c1=N\c1ccc(F)c(Cl)c1 for me?
Reply: 94.4

Ask: # get_value(readout='residual activity', item= Cc1cccc(-c2nc(C(C)(C)C)[nH]c2-c2ccc3c(c2)OCO3)n1 )
Reply: 87

Ask: Suppose we examine the compound Cc1cncc2cccc(S(=O)(=O)N3CCCN(C(=O)CN)C[C@H]3C)c12 ; what residual activity value has been reported?
Reply: 100

Ask: Name the reported residual activity value associated with the compound Ic1cccc(CSc2nnc(-c3ccncc3)o2)c1
Reply: 92.2

Ask: residual activity for c1ccc2c(-c3ccncc3)c[nH]c2c1 ?
Reply: 98.6

Ask: Any idea what residual activity was measured for O=C(c1cc2cc(O)ccc2[nH]1)c1cc2cc(O)ccc2[nH]1 ?
Reply: 72

Ask: Which measured residual activity value corresponds to COc1cc2ncnc(Nc3ccc(Oc4ccccc4)cc3)c2cc1OC ?
Reply: 98.6

Ask: Could you share which residual activity value was measured for O=C1C(Cl)=C(N2C(=O)CCC2=O)C(=O)c2ccccc21 ?
Reply: 95.9

Ask: Name the recorded residual activity for CO[C@@H]1[C@H](N(C)C(=O)c2ccccc2)C[C@H]2O[C@]1(C)n1c3ccccc3c3c4c(c5c6ccccc6n2c5c31)C(=O)NC4 .
Reply: 16.8

Ask: Name the recorded residual activity for COc1cc(Nc2c(C#N)cnc3cc(OCCCN4CCN(C)CC4)c(OC)cc23)c(Cl)cc1Cl .
Reply: 21.1

Ask: // query residual activity value for entry Cc1nc(-c2ccccc2)c(-c2ccncc2)o1
Reply: 99.1

Ask: Requested field: residual activity. Item: COc1ccc2c(c1)/C(=C/c1cnc[nH]1)C(O)=N2
Reply: 93.9

Ask: Returns the measured residual activity for the input compound. Input: O=C1c2ccccc2-c2nc3nnnn3nc21
Reply: 94.8

Ask: Look up residual activity: N#C/C(=C\c1ccc(O)c(O)c1)C(=O)NCc1ccccc1
Reply: 116

Ask: For O=C1Nc2ccc(Br)cc2/C1=C\c1cc2c([nH]1)CCCC2 , what is its reported residual activity?
Reply: 90.5

Ask: So what's the measured residual activity for this one? COc1ccc(Cl)cc1NC(=O)Nc1cc(C)nc2ccccc12
Reply: 88.2

====

TESTED ON: CDK4 CCND1 (human) (UniProt P24385+P11802)
Sequence (P11802 whole entry, looked up): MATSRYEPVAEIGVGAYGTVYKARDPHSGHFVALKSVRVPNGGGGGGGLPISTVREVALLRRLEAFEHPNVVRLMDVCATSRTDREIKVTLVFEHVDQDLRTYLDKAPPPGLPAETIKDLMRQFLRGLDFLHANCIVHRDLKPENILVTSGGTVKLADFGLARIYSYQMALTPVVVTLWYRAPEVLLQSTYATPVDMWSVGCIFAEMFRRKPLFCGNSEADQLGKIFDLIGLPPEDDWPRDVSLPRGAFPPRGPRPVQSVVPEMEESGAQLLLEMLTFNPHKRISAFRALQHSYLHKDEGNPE
Sequence (P24385 whole entry, looked up): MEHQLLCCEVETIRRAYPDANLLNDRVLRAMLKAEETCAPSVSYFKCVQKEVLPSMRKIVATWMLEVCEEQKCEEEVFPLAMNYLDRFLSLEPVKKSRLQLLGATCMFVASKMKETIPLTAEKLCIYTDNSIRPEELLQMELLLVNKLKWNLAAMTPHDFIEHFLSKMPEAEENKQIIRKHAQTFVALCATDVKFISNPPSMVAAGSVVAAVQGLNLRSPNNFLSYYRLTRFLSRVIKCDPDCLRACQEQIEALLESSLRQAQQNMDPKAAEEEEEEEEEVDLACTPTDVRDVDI
RUN DESCRIPTION: radiometric filter-binding kinase assay, Kinase HotSpot
MEASUREMENT SETUP: compound 0.5 µM; ATP 10 µM
Give measured residual activity for each item. Keep answers brief.
Quick note: give the figure in %, leave out the unit.

Ask: Given CN(C)S(=O)(=O)c1ccc2c(c1)/C(=C/c1cc3c([nH]1)CCCC3)C(=O)N2 , state its recorded residual activity.
Reply: 107

Ask: Returns the measured residual activity for the input molecule. Input: COc1ccc2c(c1)/C(=C/c1cnc[nH]1)C(O)=N2
Reply: 33.7

Ask: What value of measured residual activity is listed for N#Cc1c[nH]c2c[nH]/c(=N\Cc3cccnc3)cc2/c1=N\c1ccc(F)c(Cl)c1 ?
Reply: 97.6

Ask: Would you mind telling me what residual activity value was observed for COc1ccc(Cl)cc1NC(=O)Nc1cc(C)nc2ccccc12 ?
Reply: 98.8

Ask: What value of measured residual activity is listed for O=C1C(Cl)=C(N2C(=O)CCC2=O)C(=O)c2ccccc21 ?
Reply: 103

Ask: // lookup residual activity for COc1cc2ncnc(Nc3ccc(Oc4ccccc4)cc3)c2cc1OC
Reply: 113

Ask: Tell me the measured residual activity of CS(=O)(=O)CCNCc1ccc(-c2ccc3ncnc(Nc4ccc(OCc5cccc(F)c5)c(Cl)c4)c3c2)o1 , please.
Reply: 94.8

Ask: Entry COc1cc(Nc2c(C#N)cnc3cc(OCCCN4CCN(C)CC4)c(OC)cc23)c(Cl)cc1Cl has what residual activity?
Reply: 97.1

Ask: Reported residual activity, molecule NCCNc1ncc(C(N)=O)c(Nc2cccc(C(F)(F)F)c2)n1 : ____
Reply: 108

Ask: Requested read-out: residual activity. Entry: Cc1cn(-c2cc(NC(=O)c3ccc(C)c(Nc4nccc(-c5cccnc5)n4)c3)cc(C(F)(F)F)c2)cn1
Reply: 97

Ask: Please look up its residual activity: CC(C)(C)c1cc(C=C(C#N)C#N)cc(Br)c1O
Reply: 115

Ask: Which value of residual activity has been reported for c1ccc2c(-c3ccncc3)c[nH]c2c1 in the records?
Reply: 112

Ask: Which measured residual activity value corresponds to COc1ccc2c(c1)c(C1=C(c3c[nH]c4ccccc34)C(=O)NC1=O)cn2CCCN(C)C ?
Reply: 78.6

Ask: Look at this molecule and give its reported residual activity. CN1CCN(c2ccc3nc(-c4c(N)c5c(F)cccc5[nH]c4=O)[nH]c3c2)CC1
Reply: 79.5

Ask: Looking for the measured residual activity of Fc1ccc(-c2nc3n(c2-c2ccncc2)CCS3)cc1 , can you help?
Reply: 114

Ask: // returns reported residual activity for input NC(=O)c1cccc(-c2cc(Nc3ccc(OC(F)(F)F)cc3)ncn2)c1
Reply: 99.8

Ask: Which measured residual activity value corresponds to CCCCc1c(-c2ccc(OC)cc2)[nH]c2nccnc12 ?
Reply: 60.4

====

Field: residual activity. Provide a value for each of the compounds that follow.
TESTED ON: NEK3 (human) (UniProt P51956)
Sequence (P51956 whole entry, looked up): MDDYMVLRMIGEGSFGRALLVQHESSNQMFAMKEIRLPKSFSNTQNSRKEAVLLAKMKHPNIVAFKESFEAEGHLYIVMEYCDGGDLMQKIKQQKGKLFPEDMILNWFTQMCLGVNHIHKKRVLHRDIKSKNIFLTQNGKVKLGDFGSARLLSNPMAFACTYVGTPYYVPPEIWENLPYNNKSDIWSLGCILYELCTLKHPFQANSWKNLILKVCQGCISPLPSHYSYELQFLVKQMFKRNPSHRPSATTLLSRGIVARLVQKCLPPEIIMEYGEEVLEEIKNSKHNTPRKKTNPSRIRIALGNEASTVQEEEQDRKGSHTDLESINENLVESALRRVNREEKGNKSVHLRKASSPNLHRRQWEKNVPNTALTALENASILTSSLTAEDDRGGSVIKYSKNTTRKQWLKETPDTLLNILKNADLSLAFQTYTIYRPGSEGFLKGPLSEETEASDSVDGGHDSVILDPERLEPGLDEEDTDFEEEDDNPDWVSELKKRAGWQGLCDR
RUN DESCRIPTION: radiometric filter-binding kinase assay, Kinase HotSpot
MEASUREMENT SETUP: compound 0.5 µM; ATP 10 µM
Express it in %; write the number only.

Ask: Sample COc1ccc(Cl)cc1NC(=O)Nc1cc(C)nc2ccccc12 — what was its residual activity?
Reply: 114

Ask: Would you kindly share the measured residual activity for O=C(c1cc2cc(O)ccc2[nH]1)c1cc2cc(O)ccc2[nH]1 ?
Reply: 111

Ask: Given O=C1Nc2ccc(Br)cc2/C1=C\c1cc2c([nH]1)CCCC2 , state its recorded residual activity.
Reply: 86.7

Ask: Look up residual activity for this compound: N#C/C(=C\c1ccc(O)c(O)c1)C(=O)NCc1ccccc1
Reply: 95.1

Ask: Fill blank: measured residual activity of the compound O=C1NC(=O)c2c1c1c3ccccc3[nH]c1n1cncc21 is ____.
Reply: 89.3

Ask: May I ask what residual activity has been recorded for COc1ccc(S(=O)(=O)N(CCO)c2ccccc2CN(C)C/C=C/c2ccc(Cl)cc2)cc1 ?
Reply: 96.2

Ask: Looking for the measured residual activity of NC(=O)c1cccc(-c2cc(Nc3ccc(OC(F)(F)F)cc3)ncn2)c1 , can you help?
Reply: 121

Ask: Any idea what residual activity was measured for O=C1c2ccccc2-c2nc3nnnn3nc21 ?
Reply: 111

Ask: Suppose we examine the compound CN(C)c1ccc(/C=C2\C(=O)Nc3ccccc32)cc1 ; what residual activity value has been reported?
Reply: 95.2

Ask: Consider the compound shown here: COc1cc(Nc2c(C#N)cnc3cc(OCCCN4CCN(C)CC4)c(OC)cc23)c(Cl)cc1Cl What is its recorded residual activity?
Reply: 85.9

Ask: Give the measured residual activity of Fc1ccc(-c2nc3n(c2-c2ccncc2)CCS3)cc1 .
Reply: 96.9

Ask: Item CN(C)CCCn1cc(C2=C(c3c[nH]c4ccccc34)C(=O)NC2=O)c2ccccc21 has what recorded residual activity?
Reply: 110

Ask: Reported residual activity, compound CCCCc1c(-c2ccc(OC)cc2)[nH]c2nccnc12 : ____
Reply: 99.1

====

TESTED ON: ULK1 (human)
RUN DESCRIPTION: radiometric filter-binding kinase assay, Kinase HotSpot
MEASUREMENT SETUP: compound 0.5 µM; ATP 10 µM
Answer each item with its documented residual activity.
The reply should contain only the number, in %.

Ask: So what's the measured residual activity for this one? Cc1cncc2cccc(S(=O)(=O)N3CCCN(C(=O)CN)C[C@H]3C)c12
Reply: 51.8

Ask: Need residual activity, item Cc1cccc(-c2nc(C(C)(C)C)[nH]c2-c2ccc3c(c2)OCO3)n1
Reply: 82.7

Ask: # input compound: CC(C)(C)c1cc(C=C(C#N)C#N)cc(Br)c1O ; wanted: its residual activity
Reply: 88.2

Ask: # residual activity lookup, item C[C@@H]1CCN(C(=O)CC#N)C[C@@H]1N(C)c1ncnc2[nH]ccc12
Reply: 83

Ask: Find the recorded residual activity belonging to O=C(c1cc2cc(O)ccc2[nH]1)c1cc2cc(O)ccc2[nH]1 and report it.
Reply: 60.1

Ask: Sample Ic1cccc(CSc2nnc(-c3ccncc3)o2)c1 — what was its residual activity?
Reply: 97.1

Ask: Item under review: COc1cc2ncnc(Nc3ccc(Oc4ccccc4)cc3)c2cc1OC . Reported residual activity?
Reply: 89.5

Ask: I would be grateful if you could share the reported residual activity for CS(=O)(=O)CCNCc1ccc(-c2ccc3ncnc(Nc4ccc(OCc5cccc(F)c5)c(Cl)c4)c3c2)o1 .
Reply: 95.4

Ask: State the recorded residual activity for this entry: COc1cc(Nc2c(C#N)cnc3cc(OCCCN4CCN(C)CC4)c(OC)cc23)c(Cl)cc1Cl
Reply: 79.1

Ask: What value of residual activity has been recorded for this entry: COc1ccc(Cl)cc1NC(=O)Nc1cc(C)nc2ccccc12
Reply: 91.2

Ask: Fill in: residual activity of COc1ccc(C(=O)Nc2sc3c(c2C(N)=O)CCCC3)cc1OC is ___
Reply: 96

Ask: Look up residual activity for this compound: O=C1c2ccccc2-c2nc3nnnn3nc21
Reply: 107

Ask: Fill in: residual activity of N#Cc1c[nH]c2c[nH]/c(=N\Cc3cccnc3)cc2/c1=N\c1ccc(F)c(Cl)c1 is ___
Reply: 76.1

Ask: Please report the recorded residual activity for CCCCc1c(-c2ccc(OC)cc2)[nH]c2nccnc12 .
Reply: 87.9

This collection of values is drawn from the kinase profiling compilation of Christmann-Franck et al. (2016).
